molecular target: GDP-bound KRAS wild-type protein (Homo sapiens, UniProt P01116); test: Binding to KRAS by surface plasmon resonance (SPR), dissociation constant KD; conditions: Single Cycle Kinetics, 1:1 binding model
Sequence (P01116 1-188 isoform P01116-2): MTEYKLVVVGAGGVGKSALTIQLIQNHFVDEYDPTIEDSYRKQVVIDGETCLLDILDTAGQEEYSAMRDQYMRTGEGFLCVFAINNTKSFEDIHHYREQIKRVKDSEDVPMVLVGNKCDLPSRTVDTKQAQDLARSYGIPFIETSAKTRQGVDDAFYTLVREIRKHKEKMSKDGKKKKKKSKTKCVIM
property name: Kd

I'd like to know its Kd. The compound in question is `CCO[C@@H]1C[C@H]2C(=O)NC3(CCC3)C(=O)N(C)[C@@H](C3CCCC3)C(=O)N(C)[C@H](C(=O)N3CCOCC3)CC(=O)N(C)[C@@H](Cc3ccc(Cl)c(Cl)c3)C(=O)N[C@@H]([C@@H](C)CC)C(=O)N(C)CC(=O)N(C)[C@H]3CCCCCN(C3=O)[C@@H](Cc3ccc(F)cc3)C(=O)N(C)CC(=O)N[C@@H](CCc3cc(F)c(C(F)(F)F)c(F)c3)C(=O)N2C1`
0.43 nM

Next compound up: `CCCOC[C@H]1C(=O)N[C@@H]([C@@H](C)CC)C(=O)N(C)CC(=O)N(C)[C@H]2C/C=C\CCN(C2=O)[C@@H](Cc2ccc(C(F)(F)F)cc2)C(=O)N(C)CC(=O)N[C@@H](CCc2ccc(C(F)(F)F)c(OC)c2)C(=O)N2C[C@@H](C)C[C@H]2C(=O)NC2(CCC2)C(=O)N(C)[C@@H](C2CCCC2)C(=O)N(C)[C@H](C(=O)N(C)CCC)CC(=O)N1C`
0.11 nM
